tgt: human GnRH receptor (Homo sapiens, UniProt P30968)
Construct: The cDNA for the human GnRH receptor is cloned into the plasmid expression vector, pcDNA 3; expressed in transfected cells; host or cells: HEK 293 cells, stably transfected (pcDNA 3); membrane preparation
Sequence (P30968 1-328): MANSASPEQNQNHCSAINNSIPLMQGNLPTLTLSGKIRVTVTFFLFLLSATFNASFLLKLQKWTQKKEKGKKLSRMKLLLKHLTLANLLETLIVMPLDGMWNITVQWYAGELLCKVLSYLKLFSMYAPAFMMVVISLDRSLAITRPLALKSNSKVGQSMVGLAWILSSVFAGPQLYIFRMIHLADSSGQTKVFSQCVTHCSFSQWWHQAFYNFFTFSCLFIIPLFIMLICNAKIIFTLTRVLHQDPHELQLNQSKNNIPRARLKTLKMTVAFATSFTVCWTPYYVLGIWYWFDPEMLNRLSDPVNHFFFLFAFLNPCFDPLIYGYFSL
run.description: GnRH receptor competitive radioligand binding assay (125I-GnRH-A, HEK 293 cell membranes)
condition.label: compound at 10 μM; crude compounds; 125I-GnRH-A; lower value = higher inhibition; read-out: % Remaining 2nd Test (percent of specific binding remaining)
reported.property: remaining activity at 10 µM (%)
Respond numerically; units are % and should not be typed.

>  <compound>
CN(C)Cc1ccc(CN(Cc2ccc(OCc3ccccc3)c(OCc3ccccc3)c2)C(=O)c2cccs2)cc1

>  <recorded.result>
54

$$$$

Exam item: Check the records and state remaining activity at 10 µM for N=C(N)NCC1CCCC(CN(Cc2ccc3c(c2)OCCO3)C(=O)c2ccc3ccccc3c2)C1 (stereo not shown)
Marked response: 57

Exam item: Check the records and state remaining activity at 10 µM for CC(=O)N(Cc1ccc(OCc2ccccc2)c(OCc2ccccc2)c1)CC1CCCC(CNC(=N)N)C1 (stereo not shown)
Marked response: 47

Exam item: Check the records and state remaining activity at 10 µM for N=C(N)NCC1CCC(CN(Cc2cc3c(cc2Cl)OCO3)C(=O)c2ccco2)CC1 (stereo not shown)
Marked response: 45

Exam item: Check the records and state remaining activity at 10 µM for N=C(N)NCc1ccc(CN(CC23CC=CCC2C2CC=CCC2O3)C(=O)c2ccc3ccccc3c2)cc1 (stereo not shown)
Marked response: 33

Exam item: Check the records and state remaining activity at 10 µM for Cc1cc2c(cc1CN(CC1CCCC(CNC(=N)N)C1)C(=O)c1ccco1)C(C)(C)CCC2(C)C (stereo not shown)
Marked response: -1

Exam item: Check the records and state remaining activity at 10 µM for N=C(N)NCC1CCCC(CN(Cc2cnc3ccccc3c2)C(=O)c2cccc3ccccc23)C1 (stereo not shown)
Marked response: 62

Exam item: Check the records and state remaining activity at 10 µM for N=C(N)NCC1CCCC(CN(Cc2ccc(OCc3ccccc3)c(OCc3ccccc3)c2)C(=O)C2CCCCC2)C1 (stereo not shown)
Marked response: 60
